# Assay target: T1, recombinant mouse TfR-1, His-tagged (Sino Biological 50741-M07H) (mouse, UniProt Q62351 89-763)
# T1 construct: bought; His-tagged; also called mTfR1; mTfR-1
# T1 sequence (Q62351 89-763 limits assumed, stated change not applied): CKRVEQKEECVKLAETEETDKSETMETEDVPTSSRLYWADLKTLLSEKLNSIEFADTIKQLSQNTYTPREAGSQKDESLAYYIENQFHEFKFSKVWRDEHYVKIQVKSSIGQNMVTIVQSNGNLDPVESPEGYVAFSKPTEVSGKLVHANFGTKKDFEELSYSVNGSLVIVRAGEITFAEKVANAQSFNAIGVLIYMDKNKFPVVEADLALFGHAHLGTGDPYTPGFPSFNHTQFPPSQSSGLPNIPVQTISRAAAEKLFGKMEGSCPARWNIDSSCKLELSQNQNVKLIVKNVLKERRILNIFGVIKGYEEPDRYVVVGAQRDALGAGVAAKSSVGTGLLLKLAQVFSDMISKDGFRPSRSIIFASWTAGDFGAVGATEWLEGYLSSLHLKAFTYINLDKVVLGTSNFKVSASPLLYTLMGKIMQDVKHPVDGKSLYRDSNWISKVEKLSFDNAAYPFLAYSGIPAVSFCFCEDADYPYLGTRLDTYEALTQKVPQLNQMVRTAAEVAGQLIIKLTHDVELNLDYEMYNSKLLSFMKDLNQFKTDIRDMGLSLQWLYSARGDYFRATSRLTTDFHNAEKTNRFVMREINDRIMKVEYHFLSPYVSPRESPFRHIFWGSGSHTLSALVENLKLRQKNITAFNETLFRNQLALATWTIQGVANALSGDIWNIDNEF
# Test protocol: SPR, His-captured TfR1
Property: kon (M⁻¹ s⁻¹)
Response body: numeric value in M⁻¹ s⁻¹, unit text excluded.

Record excerpt, results attached:
1) Clone H variant 4 VNAR-hFc (Fc fusion, not shown: a dimerising Fc or GST) ARVDQTPQTITKETGESLTINCVLRDSNCELSSTYWYRKKSGSTNEESISKGGRYVETVNSGSKSFSLRINDLVVEDSGTYRCNVQQFPSRFNGRYWCDVYGGGTAVTVNA; 28300
2) Clone H variant 1 VNAR-hFc (Fc fusion, not shown: a dimerising Fc or GST, also called clone H var) ARVDQTPQTITKETGESLTINCVLRDSNCELSSTYWYRKKSGSTNEESISKGGRYVETVNSGSKSFSLRINDLVVEDSGTYRCNVVQWPSSSNGRYWCDVYGGGTAVTVNA; 41600
3) Clone H variant 2 VNAR-hFc (Fc fusion, not shown: a dimerising Fc or GST) ARVDQTPQTITKETGESLTINCVLRDSNCELSSTYWYRKKSGSTNEESISKGGRYVETVNSGSKSFSLRINDLVVEDSGTYRCNVQQFPSSWPFRYWCDVYGGGTAVTVNA; 19100

Here's the next entry for you.
Entry Clone H variant 3 VNAR-hFc (Fc fusion, not shown: a dimerising Fc or GST) ARVDQTPQTITKETGESLTINCVLRDSNCELSSTYWYRKKSGSTNEESISKGGRYVETVNSGSKSFSLRINDLVVEDSGTYRCNVQQFPSWGNGRYWCDVYGGGTAVTVNA has what kon?
48900
